Source of measurements: patent US8129371B2

target: PI3K (Homo sapiens, UniProt P42336); construct: PI3 Kinase α IC50; other: PI3 Kinase α; other: PI3 Kinase α isoform, fluorescence polarization; assay: Fluorescence polarization assay for PI3K; type: biochemical; conditions: PI3 Kinase α; read-out: PI3 Kinase α IC50
Sequence (P42336 whole entry, canonical isoform): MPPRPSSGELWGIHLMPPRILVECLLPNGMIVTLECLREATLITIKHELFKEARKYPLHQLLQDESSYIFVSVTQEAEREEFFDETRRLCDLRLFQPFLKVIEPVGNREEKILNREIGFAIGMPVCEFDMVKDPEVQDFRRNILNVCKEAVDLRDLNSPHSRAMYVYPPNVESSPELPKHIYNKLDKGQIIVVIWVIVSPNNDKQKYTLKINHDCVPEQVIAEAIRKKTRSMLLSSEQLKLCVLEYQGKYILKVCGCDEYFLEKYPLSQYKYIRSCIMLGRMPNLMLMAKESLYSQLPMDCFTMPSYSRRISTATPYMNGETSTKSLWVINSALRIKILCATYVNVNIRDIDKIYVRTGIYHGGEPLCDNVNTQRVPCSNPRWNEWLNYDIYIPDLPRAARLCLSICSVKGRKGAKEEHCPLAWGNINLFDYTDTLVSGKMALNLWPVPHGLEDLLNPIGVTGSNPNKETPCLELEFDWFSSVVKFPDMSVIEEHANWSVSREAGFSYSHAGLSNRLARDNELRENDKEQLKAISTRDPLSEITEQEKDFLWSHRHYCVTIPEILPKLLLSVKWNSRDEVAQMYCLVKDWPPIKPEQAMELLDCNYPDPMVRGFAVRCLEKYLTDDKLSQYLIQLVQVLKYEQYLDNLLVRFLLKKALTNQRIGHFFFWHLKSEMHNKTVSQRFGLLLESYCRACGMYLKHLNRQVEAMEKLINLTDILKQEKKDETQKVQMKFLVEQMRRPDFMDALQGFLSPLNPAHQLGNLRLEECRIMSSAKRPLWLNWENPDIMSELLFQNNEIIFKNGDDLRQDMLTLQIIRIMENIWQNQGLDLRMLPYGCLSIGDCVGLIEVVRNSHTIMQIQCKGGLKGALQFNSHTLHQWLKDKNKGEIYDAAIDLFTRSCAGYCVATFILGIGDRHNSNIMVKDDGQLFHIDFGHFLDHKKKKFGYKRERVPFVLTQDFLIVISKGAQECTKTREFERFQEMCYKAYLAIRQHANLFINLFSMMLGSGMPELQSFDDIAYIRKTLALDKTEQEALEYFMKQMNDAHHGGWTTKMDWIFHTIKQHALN
pIC50: −log10 of the molar value.
reported.property: pIC50

Some solved cases for reference:
INSERT INTO assay_data (compound, endpoint_value) VALUES
  ('CC(C)n1ncc2c(N3CC4CCC(C3)O4)nc(-c3ccc(NC(=O)OCCCO)cc3)nc21 [Example 145]', 5.47),
  ('CNC(=O)Nc1ccc(-c2nc(N3C4CCC3COC4)c3cnn(CC(F)(F)F)c3n2)cc1 [Example 267]', 5.86),
  ('CC(C)n1ncc2c(N3CC4CCC(C3)O4)nc(-c3ccc(NC(=O)NCCF)cc3)nc21 [Example 141]', 6.19),
  ('CNC(=O)Nc1ccc(-c2nc(N3CC4CCC(C3)O4)c3cnn(C4CCC5(CC4)OCC(C)(C)CO5)c3n2)cc1 [Example 152]', 6.25),
  ('CN(C)CCNC(=O)Nc1ccc(-c2nc(N3CC4CCC(C3)O4)c3cnn(C)c3n2)cc1 [Example 58]', 6.51),
  ('CCn1ncc2c(N3CC4CCC(C3)O4)nc(-c3ccc(NC(=O)Nc4ccc(N5CCOCC5)nc4)cc3)nc21 [Example 184]', 5.67);

P. O=C(Nc1ccccc1)Nc1ccc(-c2nc(N3CC4CCC(C3)O4)c3cnn(C4CCNCC4)c3n2)cc1 [Example 29]
Q. CN(C)CCn1ncc2c(N3CC4CCC(C3)O4)nc(-c3ccc(NC(=O)NC4CC4)cc3)nc21 [Example 161]
R. CCn1ncc2c(N3CC4CCC(C3)O4)nc(-c3ccc(NC(=O)Nc4ccc(OCCN(C)C)cc4)cc3)nc21 [Example 186]
S. CCOC(=O)N1CCC(n2ncc3c(N4CC5CCC(C4)O5)nc(-c4ccc(NC(=O)NCCCNC)cc4)nc32)CC1 [Example 38]
[ask] Sort ascending by pIC50. Answer format: list of labels, ordered as asked.
[reply] Q, S, P, R
(Q: 5.44, S: 5.75, P: 6.56, R: 6.87)

* * *

molecular target: PI3K (Homo sapiens); construct: PI3 Kinase α IC50; other: PI3 Kinase α; other: PI3 Kinase α isoform, fluorescence polarization; assay: Fluorescence polarization assay for PI3K; type: biochemical; conditions: PI3 Kinase α; read-out: PI3 Kinase α IC50
reported.property: IC50

Some solved cases for reference:
INSERT INTO results (compound, endpoint_value) VALUES
  ('O=C(NCCF)Nc1ccc(-c2nc(N3CC4CCC(C3)O4)c3cnn(C4CCN(Cc5cccnc5)CC4)c3n2)cc1 [Example 16]', '2.63 µM'),
  ('COC(=O)N1CCC(n2ncc3c(N4CC5CCC(C4)O5)nc(-c4ccc(NC(=O)OCCN5CCOCC5)cc4)nc32)CC1 [Example 117]', '> 10 µM');

Now examine the next entry.
[ask] Sample O=C(Nc1ccc(-c2nc(N3CC4CCC(C3)O4)c3cnn(C4CCC5(CC4)OCCO5)c3n2)cc1)OCCCO [Example 122] — what was its IC50?
[reply] > 10 µM
